molecular target: Hemoglobin subunit alpha (Homo sapiens) (UniProt P69905); test: Percent modification of human hemoglobin alpha (100 uM) after 3h of incubation
Sequence (P69905 whole entry): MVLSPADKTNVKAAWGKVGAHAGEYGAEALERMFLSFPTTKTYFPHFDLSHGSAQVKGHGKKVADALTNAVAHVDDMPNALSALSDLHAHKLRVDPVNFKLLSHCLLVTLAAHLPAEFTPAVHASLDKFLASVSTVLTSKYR
Would you kindly list Modification for each of these molecules?
Output spec: scalar in %, unitless text.

## Task Could you share which Modification value was measured for "N#CCCSC#N" ?
## Result 10

## Task # repeat for "N#CSCCCn1ccnc1"
## Result 7

## Task // repeat for "N#CSc1ccc(CCO)cc1" and report
## Result 72

## Task Can you check "N#CSCCc1c[nH]c2ccccc12" next?
## Result 7

## Task Next record, please: "N#CSc1ccc(C(=O)O)c(O)c1"
## Result 35

## Task Also need N#CSC1CCC(O)CC1 (stereo unspecified) , thanks.
## Result 0

## Task Entry "CCN(CC)CCCSC#N" please
## Result 0

## Task Repeat with "N#CSCc1ccncc1"
## Result 6

## Task Same question, "N#CSc1ccc(CC(=O)O)cc1" this time
## Result 42

## Task Item: "COC(CSC#N)OC"
## Result 11

## Task Same question for "N#CSCCCN1CCCC1=O" please.
## Result 0
